# Species on record: Sus scrofa
# experimentalDetails: Inhibition of porcine pancreatic elastase using N-Suc-(L-Ala)3-p-nitroaniline at 50 to 500 uM
# conditionSummary: TDE = time-dependent effect
readoutLabel: inhibition

Reference set, count: 4
compound: Cc1ccc(S(=O)(=O)N2C(=O)OC(C)(C)C2=O)cc1
resultValue: tde
//
compound: COc1ccc(C(=O)N2C(=O)OC(C)(C)C2=O)cc1
resultValue: tde
//
compound: COc1ccc(C(=O)N2C(=O)OC(C)C2=O)cc1 (stereo not given)
resultValue: tde
//
compound: COc1ccc(C(=O)N2C(=O)OC(c3ccccc3)C2=O)cc1 (stereo not given)
resultValue: tde

// moving on: another record for inhibition
Challenge: Reported inhibition for `CC1(C)OC(=O)N(Cc2ccccc2)C1=O` : what is it?
Response given: tde

----------
# testedTarget: Neutrophil elastase (Homo sapiens)
# Sequence (P08246 whole entry): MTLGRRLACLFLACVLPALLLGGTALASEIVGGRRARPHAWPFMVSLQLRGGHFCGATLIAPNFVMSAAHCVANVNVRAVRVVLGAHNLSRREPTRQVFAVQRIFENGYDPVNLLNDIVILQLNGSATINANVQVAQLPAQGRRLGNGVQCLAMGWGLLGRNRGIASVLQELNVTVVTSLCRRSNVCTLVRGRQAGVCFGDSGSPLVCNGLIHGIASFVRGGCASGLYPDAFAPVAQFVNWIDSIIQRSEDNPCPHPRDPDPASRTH
# experimentalDetails: Inhibition of human neutrophil elastase using chromogenic substrate (N-MeOSuc-Ala-Ala-Pro-Val-p-nitroanilide after 120 mins
readoutLabel: pIC50
Give only the number. pIC50 is defined as minus log10 of concentration in molar units.

Reference set, count: 3
molecule: CC1(C)OC(=O)N(Cc2ccccc2)C1=O
readoutLabel: pIC50
resultValue: 4.81

molecule: Cc1ccc(S(=O)(=O)N2C(=O)OC(C)(C)C2=O)cc1
readoutLabel: pIC50
resultValue: 5.59

molecule: COc1ccc(C(=O)N2C(=O)OC(C)(C)C2=O)cc1
readoutLabel: pIC50
resultValue: 4.99

// moving on: another record for pIC50
Challenge: Reported pIC50 for COc1ccc(C(=O)N2C(=O)OC(c3ccccc3)C2=O)cc1 (stereo not given) : what is it?
Response given: 4.81

----------
Reported half-life by item:
# experimentalDetails: Half life of the compound in phosphate buffer at pH 7.4
# Type: physicochemical
The reply should be a number in min, with the unit left off.

Reference set, count: 2
compound: COc1ccc(C(=O)N2C(=O)OC(C)(C)C2=O)cc1
half-life / min: 16.7

compound: Cc1ccc(S(=O)(=O)N2C(=O)OC(C)(C)C2=O)cc1
half-life / min: 6.86

Challenge: Reported half-life for CC1OC(=O)N(c2ccc([N+](=O)[O-])cc2)C1=O (stereo not drawn) : what is it?
Response given: 38.7
